Source of measurements: patent US20120065196A1

Recorded IC50, one value per entry.
- Target Or Test System: human DGAT1 (Homo sapiens, UniProt O75907)
- Construct: (N); microsome fraction
- Sequence (O75907 1-488): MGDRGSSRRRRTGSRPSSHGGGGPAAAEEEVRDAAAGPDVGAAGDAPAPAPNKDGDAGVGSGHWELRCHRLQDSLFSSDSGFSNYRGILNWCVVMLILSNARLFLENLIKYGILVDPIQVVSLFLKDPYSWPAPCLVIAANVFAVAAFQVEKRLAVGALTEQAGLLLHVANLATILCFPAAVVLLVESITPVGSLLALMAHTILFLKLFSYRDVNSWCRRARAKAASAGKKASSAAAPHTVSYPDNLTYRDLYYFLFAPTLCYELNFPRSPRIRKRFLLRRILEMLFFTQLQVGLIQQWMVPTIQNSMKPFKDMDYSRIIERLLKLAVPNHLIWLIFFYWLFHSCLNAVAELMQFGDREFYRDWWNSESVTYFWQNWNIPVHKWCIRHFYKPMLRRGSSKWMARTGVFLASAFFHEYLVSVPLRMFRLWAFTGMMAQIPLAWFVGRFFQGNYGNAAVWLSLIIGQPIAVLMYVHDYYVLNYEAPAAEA
- Assay Comment: Determination of DGAT inhibitory activity (triglyceride synthesis with DGAT1 high expression Sf9 microsome)
- Measurement Conditions: 25 μM dioleoylglycerol, 25 μM [14C]-Oleoyl-CoA, 32° C., 20 min, read-out: hDGAT1 IC50

[
  {
    "Compound": "O=C(NCCNC(=O)C1CCc2c(cnn2-c2ccccc2)C1)c1cn(-c2ccccc2)nc1C(F)(F)F (stereo not shown)",
    "IC50": "0.01 to 0.1 µM"
  }
]

Please turn your attention to the following entry.
Ask | Quickly give me recorded IC50 for `Cn1cnc(-c2ccccc2)c1C1CCN(C(=O)NCCNC(=O)c2cn(-c3ccccc3)nc2C(F)(F)F)CC1`
Reply | 0.1 to 1 µM

* * *

- Target Or Test System: human DGAT1 (Homo sapiens, UniProt O75907)
- Construct: (N); microsome fraction
- Sequence (O75907 1-488): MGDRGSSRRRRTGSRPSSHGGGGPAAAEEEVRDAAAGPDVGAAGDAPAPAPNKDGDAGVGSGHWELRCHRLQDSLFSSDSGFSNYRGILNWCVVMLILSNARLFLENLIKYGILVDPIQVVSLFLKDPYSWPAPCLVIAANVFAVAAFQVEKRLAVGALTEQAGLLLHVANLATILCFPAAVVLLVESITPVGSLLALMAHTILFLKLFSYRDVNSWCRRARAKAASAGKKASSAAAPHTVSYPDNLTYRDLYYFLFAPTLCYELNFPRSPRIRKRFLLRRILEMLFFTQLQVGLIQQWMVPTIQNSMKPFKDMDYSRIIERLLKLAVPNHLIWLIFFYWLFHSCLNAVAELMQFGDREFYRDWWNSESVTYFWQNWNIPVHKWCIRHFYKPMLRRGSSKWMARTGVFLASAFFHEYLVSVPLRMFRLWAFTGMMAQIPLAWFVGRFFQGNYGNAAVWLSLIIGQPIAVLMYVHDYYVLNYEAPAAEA
- Assay Comment: Determination of DGAT inhibitory activity (triglyceride synthesis with DGAT1 high expression Sf9 microsome)
- Measurement Conditions: 25 μM dioleoylglycerol, 25 μM [14C]-Oleoyl-CoA, 32° C., 20 min, read-out: hDGAT1 IC50
pIC50: −log10 of the molar value.
Recorded pIC50, one value per entry.

Below are worked cases with known answers.
[
  {
    "Compound": "O=C(NCCNC(=O)C1CCc2nc(-c3ccccc3)sc2C1)c1cn(-c2ccccc2)nc1C(F)(F)F (centres unmarked) [Example E175]",
    "Target Or Test System": "human DGAT1 (Homo sapiens, UniProt O75907)",
    "Experimental Readout": "pIC50",
    "Result": "7.00 to 8.00"
  },
  {
    "Compound": "CC(C)C1CN(C(=O)NCCNC(=O)c2cn(-c3ccccc3)nc2C(F)(F)F)CC1C(=O)c1ccccc1 (centres unmarked) [Example E193]",
    "Target Or Test System": "human DGAT1 (Homo sapiens, UniProt O75907)",
    "Experimental Readout": "pIC50",
    "Result": "5.00 to 6.00"
  },
  {
    "Compound": "CC(C)c1nc2c(s1)CC(C(=O)NCCNC(=O)c1cn(-c3ccccc3)nc1C(F)(F)F)CC2 (centres unmarked) [Example E242]",
    "Target Or Test System": "human DGAT1 (Homo sapiens, UniProt O75907)",
    "Experimental Readout": "pIC50",
    "Result": "7.00 to 8.00"
  },
  {
    "Compound": "O=C(NCCNC(=O)N1CCC(c2nc(-c3cccnc3)no2)CC1)c1cn(-c2ccccc2)nc1C(F)(F)F [Example E101]",
    "Target Or Test System": "human DGAT1 (Homo sapiens, UniProt O75907)",
    "Experimental Readout": "pIC50",
    "Result": "7.00 to 8.00"
  }
]

Ask | Quickly give me recorded pIC50 for CN(CCc1ccncc1)C(=O)NCCNC(=O)c1cn(-c2ccccc2)nc1C(F)(F)F [Example F1]
Reply | 5.00 to 6.00

Ask | Quickly give me recorded pIC50 for O=C(NCCNC(=O)[C@H]1CC[C@H](c2nc(-c3ccccc3)c[nH]2)CC1)c1cn(-c2ccccc2)nc1C(F)(F)F [Example E172]
Reply | 6.00 to 7.00

Ask | Quickly give me recorded pIC50 for O=C(NCCNC(=O)[C@H]1CC[C@H](C(=O)NCCF)CC1)c1cn(-c2ccccc2)nc1C(F)(F)F [Example E165]
Reply | 6.00 to 7.00

Ask | Quickly give me recorded pIC50 for O=C(NCCNC(=O)[C@H]1CC[C@H](C(=O)c2ccccc2)CC1)c1cn(-c2ccccc2Cl)nc1C(F)(F)F [Example E164]
Reply | 7.00 to 8.00

* * *

- Target Or Test System: human DGAT1 (Homo sapiens)
- Construct: (N); microsome fraction
- Assay Comment: Determination of DGAT inhibitory activity (triglyceride synthesis with DGAT1 high expression Sf9 microsome)
- Measurement Conditions: 25 μM dioleoylglycerol, 25 μM [14C]-Oleoyl-CoA, 32° C., 20 min, read-out: hDGAT1 IC50
Recorded IC50, one value per entry.

Below are worked cases with known answers.
[
  {
    "Compound": "CC(C)c1nc([C@H]2CC[C@H](C(=O)NCCNC(=O)c3cn(-c4ccccc4F)nc3C(F)(F)F)CC2)no1 [Example E260]",
    "Result": "0.01 to 0.1 µM"
  },
  {
    "Compound": "O=C(NCCNC(=O)C1CCN(S(=O)(=O)c2ccccc2)CC1)c1cn(-c2ccccc2)nc1C(F)(F)F [Example E34]",
    "Result": "0.01 to 0.1 µM"
  },
  {
    "Compound": "CC(C)(C)c1cnc([C@H]2CC[C@H](C(=O)NCCNC(=O)c3cn(-c4ccccc4)nc3C(F)(F)F)CC2)o1 [Example E214]",
    "Result": "0.01 to 0.1 µM"
  },
  {
    "Compound": "O=C(NCCNC(=O)[C@H]1CC[C@H](c2nnc(-c3ccccc3)[nH]2)CC1)c1cn(-c2ccccc2)nc1C(F)(F)F [Example E229]",
    "Result": "0.1 to 1 µM"
  },
  {
    "Compound": "CC1CN(C(=O)NCCNC(=O)c2cn(-c3ccccc3)nc2C(F)(F)F)CCN1c1ccccc1 (centres unmarked) [Example E64]",
    "Result": "0.01 to 0.1 µM"
  }
]

Ask | Quickly give me recorded IC50 for O=C(N[C@H]1CC[C@H](C(=O)NCCNC(=O)c2cn(-c3ccccc3)nc2C(F)(F)F)CC1)c1ccccc1 [Example E91]
Reply | 0.1 to 1 µM

* * *

Recorded pIC50, one value per entry.
- Target Or Test System: human DGAT1 (Homo sapiens, UniProt O75907)
- Construct: (N); microsome fraction
- Assay Comment: Determination of DGAT inhibitory activity (triglyceride synthesis with DGAT1 high expression Sf9 microsome)
- Measurement Conditions: 25 μM dioleoylglycerol, 25 μM [14C]-Oleoyl-CoA, 32° C., 20 min, read-out: hDGAT1 IC50
pIC50: −log10 of the molar value.

[
  {
    "Compound": "O=C(NCCNC(=O)N1CCC(C(=O)N2CCCC2)CC1)c1cn(-c2ccccc2)nc1C(F)(F)F [Example E63]",
    "Target Or Test System": "human DGAT1 (Homo sapiens, UniProt O75907)",
    "Result": "6.00 to 7.00"
  },
  {
    "Compound": "O=C(NCCNC(=O)[C@H]1CC[C@H](C(=O)c2ccccc2)CC1)c1cn(-c2ccccn2)nc1C(F)(F)F [Example E150]",
    "Target Or Test System": "human DGAT1 (Homo sapiens, UniProt O75907)",
    "Result": "> 8.00"
  },
  {
    "Compound": "O=C(NCCNC(=O)C1CCC(c2ccccc2)CC1)c1cn(-c2ccccc2)nc1C(F)(F)F (centres unmarked) [Example E105]",
    "Target Or Test System": "human DGAT1 (Homo sapiens, UniProt O75907)",
    "Result": "> 8.00"
  },
  {
    "Compound": "CC(C)CN(C)C(=O)[C@H]1CC[C@H](C(=O)NCCNC(=O)c2cn(-c3ccccc3)nc2C(F)(F)F)CC1 [Example E126]",
    "Target Or Test System": "human DGAT1 (Homo sapiens, UniProt O75907)",
    "Result": "7.00 to 8.00"
  },
  {
    "Compound": "O=C(NCCNC(=O)N1CCC(NS(=O)(=O)c2ccccc2)CC1)c1cn(-c2ccccc2)nc1C(F)(F)F [Example E114]",
    "Target Or Test System": "human DGAT1 (Homo sapiens, UniProt O75907)",
    "Result": "6.00 to 7.00"
  }
]

Ask | Please report the measured pIC50 for O=C(NCCNC(=O)N1CCc2nc[nH]c2C1)c1cn(-c2ccccc2)nc1C(F)(F)F [Example E95] tested on human DGAT1 (Homo sapiens, UniProt O75907).
Reply | 6.00 to 7.00
